System Tested: USP15 (UniProt Q9Y4E8)
Sequence (whole entry): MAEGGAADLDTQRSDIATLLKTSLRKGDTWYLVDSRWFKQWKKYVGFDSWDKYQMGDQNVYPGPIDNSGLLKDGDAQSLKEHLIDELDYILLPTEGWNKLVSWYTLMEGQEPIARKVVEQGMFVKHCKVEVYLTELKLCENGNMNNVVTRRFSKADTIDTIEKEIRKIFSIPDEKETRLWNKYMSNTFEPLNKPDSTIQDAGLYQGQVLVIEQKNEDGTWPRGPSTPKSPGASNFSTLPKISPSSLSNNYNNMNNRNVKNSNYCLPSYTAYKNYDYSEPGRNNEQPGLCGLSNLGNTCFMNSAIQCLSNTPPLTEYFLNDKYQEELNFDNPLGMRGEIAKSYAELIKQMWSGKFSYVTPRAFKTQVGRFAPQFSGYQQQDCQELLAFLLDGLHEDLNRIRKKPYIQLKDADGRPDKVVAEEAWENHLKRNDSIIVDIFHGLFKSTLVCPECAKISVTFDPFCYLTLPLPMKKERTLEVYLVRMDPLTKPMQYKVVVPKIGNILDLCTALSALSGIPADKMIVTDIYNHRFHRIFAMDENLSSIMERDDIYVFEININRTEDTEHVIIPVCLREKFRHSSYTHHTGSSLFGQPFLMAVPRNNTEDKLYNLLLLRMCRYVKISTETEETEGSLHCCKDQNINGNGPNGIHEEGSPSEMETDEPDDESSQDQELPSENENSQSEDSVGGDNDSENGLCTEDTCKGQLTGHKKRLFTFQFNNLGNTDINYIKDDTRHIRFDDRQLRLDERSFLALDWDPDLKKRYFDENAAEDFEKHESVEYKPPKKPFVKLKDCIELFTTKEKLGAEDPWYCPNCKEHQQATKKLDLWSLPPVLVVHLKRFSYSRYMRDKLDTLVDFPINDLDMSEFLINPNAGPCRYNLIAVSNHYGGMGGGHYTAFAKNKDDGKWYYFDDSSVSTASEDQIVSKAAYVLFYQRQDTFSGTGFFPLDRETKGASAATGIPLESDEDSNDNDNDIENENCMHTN
Test Name: log2 ratio of Biotin-Ahx-Ub-VS probe labelling (fragment/DMSO); higher = less target engagement (more negative = stronger competition), active = hit call of the paper (q ≤ 0.05, log2 ratio ≤ -1)
Condition Notes: compound concentration: 200 uM; treatment time: 3 h
Reported Property: log2 ratio of Biotin-Ahx-Ub-VS probe labelling
// return just the number, without any unit appended

Examples from the recorded data:
1. O=C(O)C1Cc2ccccc2CN1C(=O)CCl (centres undefined) | -0.35
2. O=C(CCl)N1CCC(c2ccn[nH]2)C1 (centres undefined) | -0.555

[Q] // log2 ratio of Biotin-Ahx-Ub-VS probe labelling lookup, key: O=C(CCl)N1CCOC2(CCC2)CC1
[A] -0.447

[Q] // log2 ratio of Biotin-Ahx-Ub-VS probe labelling lookup, key: Cn1cc(CN(Cc2ccc(Cl)cc2)C(=O)CCl)cn1
[A] -0.272

[Q] // log2 ratio of Biotin-Ahx-Ub-VS probe labelling lookup, key: Cc1nc(-c2cccc(NC(=O)CCl)c2)cs1
[A] -0.235

###

Some molecules, each annotated with its measured log2 ratio of Biotin-Ahx-Ub-VS probe labelling.
System Tested: ATXN3 (UniProt P54252)
Sequence (P54252 whole entry, the tested form may be a part): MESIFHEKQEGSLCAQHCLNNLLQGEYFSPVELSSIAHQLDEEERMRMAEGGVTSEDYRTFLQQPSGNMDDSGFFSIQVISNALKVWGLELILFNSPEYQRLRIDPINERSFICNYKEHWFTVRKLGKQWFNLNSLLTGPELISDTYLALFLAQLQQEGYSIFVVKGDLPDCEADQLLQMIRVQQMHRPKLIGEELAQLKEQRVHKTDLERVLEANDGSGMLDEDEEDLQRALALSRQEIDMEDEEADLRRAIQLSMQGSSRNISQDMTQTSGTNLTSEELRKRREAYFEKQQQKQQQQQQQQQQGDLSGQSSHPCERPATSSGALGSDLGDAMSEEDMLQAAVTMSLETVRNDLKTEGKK
Test Name: log2 ratio of Biotin-Ahx-Ub-VS probe labelling (fragment/DMSO); higher = less target engagement (more negative = stronger competition), active = hit call of the paper (q ≤ 0.05, log2 ratio ≤ -1)
Condition Notes: compound concentration: 200 uM; treatment time: 3 h
// return just the number, without any unit appended

Examples from the recorded data:
1. O=C(CCl)Nc1cc(Cl)ccc1C(=O)O | 0.182
2. Cc1cccc(C(CNC(=O)CCl)N2CCOCC2)c1.Cl (centres undefined) | 0.0164
3. O=C(CCl)NCCc1ccc(F)cc1 | -0.166
4. O=C(CCl)NC1CCC(C(F)(F)F)CC1 (centres undefined) | -0.373
5. CC(NC(=O)CCl)c1ccc2[nH]ncc2c1 (centres undefined) | -0.431
6. Cl.O=C(CCl)N1CCn2cncc2C1 | -0.224
7. Cc1n[nH]c2c1CN(C(=O)CCl)CC2 | -0.888
8. Cl.O=C(CCl)N1CCC(Cc2nccs2)C1 (centres undefined) | -0.494
9. CCN(C(=O)CCl)C1CCS(=O)(=O)C1 (centres undefined) | -0.159
10. COc1cc(Cl)c(C)cc1NC(=O)CCl | -0.37

Next up:
[Q] // log2 ratio of Biotin-Ahx-Ub-VS probe labelling lookup, key: CC(C)n1nccc1NC(=O)CCl
[A] -0.233

###

System Tested: USP5 (UniProt P45974)
Sequence (P45974 whole entry, the tested form may be a part): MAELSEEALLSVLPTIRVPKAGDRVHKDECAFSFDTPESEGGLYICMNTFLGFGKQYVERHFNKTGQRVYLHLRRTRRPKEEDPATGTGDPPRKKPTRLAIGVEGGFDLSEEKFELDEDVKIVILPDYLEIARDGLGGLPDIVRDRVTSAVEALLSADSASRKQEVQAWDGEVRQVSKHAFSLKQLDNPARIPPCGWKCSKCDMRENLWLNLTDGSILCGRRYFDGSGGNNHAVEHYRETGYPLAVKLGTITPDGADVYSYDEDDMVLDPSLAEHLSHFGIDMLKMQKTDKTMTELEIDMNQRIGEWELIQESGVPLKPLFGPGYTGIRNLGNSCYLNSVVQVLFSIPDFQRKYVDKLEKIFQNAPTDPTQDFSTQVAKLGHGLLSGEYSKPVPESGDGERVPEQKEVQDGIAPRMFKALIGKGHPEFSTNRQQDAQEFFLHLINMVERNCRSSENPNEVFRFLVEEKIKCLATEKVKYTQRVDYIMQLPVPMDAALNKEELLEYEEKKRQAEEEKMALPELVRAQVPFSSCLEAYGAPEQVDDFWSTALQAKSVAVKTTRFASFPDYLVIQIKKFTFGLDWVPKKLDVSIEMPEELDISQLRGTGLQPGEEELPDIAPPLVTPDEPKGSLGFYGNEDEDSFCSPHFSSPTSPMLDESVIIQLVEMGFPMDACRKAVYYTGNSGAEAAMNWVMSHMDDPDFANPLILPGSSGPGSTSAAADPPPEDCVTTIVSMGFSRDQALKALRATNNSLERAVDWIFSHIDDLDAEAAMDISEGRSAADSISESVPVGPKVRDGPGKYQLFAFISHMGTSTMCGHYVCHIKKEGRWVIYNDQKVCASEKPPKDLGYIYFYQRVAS
Test Name: log2 ratio of Biotin-Ahx-Ub-VS probe labelling (fragment/DMSO); higher = less target engagement (more negative = stronger competition), active = hit call of the paper (q ≤ 0.05, log2 ratio ≤ -1)
Condition Notes: compound concentration: 200 uM; treatment time: 3 h
Could you label it true if measured log2 ratio of Biotin-Ahx-Ub-VS probe labelling is 0.09 or higher, and false otherwise?

Worked cases, answers included:
1) Cc1ccccc1CN(C)C(=O)CCl | false
2) CC(NC(=O)CCl)c1noc(Cc2ccccc2)n1 (centres undefined) | false
3) O=C(CCl)N1CCc2[nH]c3ccccc3c2C1 | false

[Q] I'd appreciate it if you could say whether NS(=O)(=O)c1ccc(Cl)c(NC(=O)CCl)c1 has log2 ratio of Biotin-Ahx-Ub-VS probe labelling at least equal to 0.09.
[A] true

[Q] I'd appreciate it if you could say whether O=C(CCl)Nc1ccc2c(c1)OC(F)(F)O2 has log2 ratio of Biotin-Ahx-Ub-VS probe labelling at least equal to 0.09.
[A] true

[Q] I'd appreciate it if you could say whether O=C(CCl)NCCc1ccc2c(c1)OCCO2 has log2 ratio of Biotin-Ahx-Ub-VS probe labelling at least equal to 0.09.
[A] false

[Q] I'd appreciate it if you could say whether CN1c2ccccc2C(NC(=O)CCl)CS1(=O)=O (centres undefined) has log2 ratio of Biotin-Ahx-Ub-VS probe labelling at least equal to 0.09.
[A] true

[Q] I'd appreciate it if you could say whether Cc1ccc(-c2nnc(C)[nH]2)c(NC(=O)CCl)c1 has log2 ratio of Biotin-Ahx-Ub-VS probe labelling at least equal to 0.09.
[A] false

[Q] I'd appreciate it if you could say whether O=C(CCl)N1CCC(O)(Cc2ccc(F)cc2)C1 (centres undefined) has log2 ratio of Biotin-Ahx-Ub-VS probe labelling at least equal to 0.09.
[A] true

[Q] I'd appreciate it if you could say whether Cc1ccc(N2CCC(NC(=O)CCl)C2=O)cc1 (centres undefined) has log2 ratio of Biotin-Ahx-Ub-VS probe labelling at least equal to 0.09.
[A] true

[Q] I'd appreciate it if you could say whether Cl.Cn1c(CNC(=O)CCl)nc2cccnc21 has log2 ratio of Biotin-Ahx-Ub-VS probe labelling at least equal to 0.09.
[A] false

[Q] I'd appreciate it if you could say whether Cc1cc(Cl)ccc1NC(=O)CCl has log2 ratio of Biotin-Ahx-Ub-VS probe labelling at least equal to 0.09.
[A] false

[Q] I'd appreciate it if you could say whether O=C(CCl)N1CCC[C@@H]1c1ccon1 has log2 ratio of Biotin-Ahx-Ub-VS probe labelling at least equal to 0.09.
[A] false

[Q] I'd appreciate it if you could say whether CC(NC(=O)CCl)c1cccc2ccccc12 (centres undefined) has log2 ratio of Biotin-Ahx-Ub-VS probe labelling at least equal to 0.09.
[A] true

###

System Tested: UniProt O00487
Sequence (O00487 whole entry, the tested form may be a part): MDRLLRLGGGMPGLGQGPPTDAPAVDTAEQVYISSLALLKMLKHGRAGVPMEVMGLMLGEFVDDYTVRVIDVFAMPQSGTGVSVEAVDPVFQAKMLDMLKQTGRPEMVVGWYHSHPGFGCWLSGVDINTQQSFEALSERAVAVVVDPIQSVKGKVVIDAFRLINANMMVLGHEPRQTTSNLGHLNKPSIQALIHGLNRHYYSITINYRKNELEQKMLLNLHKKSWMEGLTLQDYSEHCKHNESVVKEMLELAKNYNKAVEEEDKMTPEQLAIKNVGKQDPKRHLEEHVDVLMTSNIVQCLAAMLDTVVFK
Test Name: log2 ratio of Biotin-Ahx-Ub-VS probe labelling (fragment/DMSO); higher = less target engagement (more negative = stronger competition), active = hit call of the paper (q ≤ 0.05, log2 ratio ≤ -1)
Condition Notes: compound concentration: 200 uM; treatment time: 3 h
Could you label it fulfilled if measured log2 ratio of Biotin-Ahx-Ub-VS probe labelling is -0.1 or higher, and not fulfilled otherwise?

1) O=C(CCl)N1CCc2[nH]c3ccccc3c2C1 | not fulfilled
2) O=C(CCl)N1CCC(c2nc3ccccc3o2)CC1 | not fulfilled
3) CC(=O)C1CCCCN1C(=O)CCl (configuration not stated) | fulfilled
4) Cc1cccc(C)c1NC(=O)CCl | fulfilled
5) O=C(CCl)N1CCC(c2ccn[nH]2)C1 (configuration not stated) | fulfilled

[Q] I'd appreciate it if you could say whether CS(=O)(=O)c1ccc(NC(=O)CCl)cc1 has log2 ratio of Biotin-Ahx-Ub-VS probe labelling at least equal to -0.1.
[A] not fulfilled

###

Some compounds, each annotated with its measured log2 ratio of Biotin-Ahx-Ub-VS probe labelling.
System Tested: ALG13 (UniProt Q9NP73)
Sequence (Q9NP73 whole entry, the tested form may be a part): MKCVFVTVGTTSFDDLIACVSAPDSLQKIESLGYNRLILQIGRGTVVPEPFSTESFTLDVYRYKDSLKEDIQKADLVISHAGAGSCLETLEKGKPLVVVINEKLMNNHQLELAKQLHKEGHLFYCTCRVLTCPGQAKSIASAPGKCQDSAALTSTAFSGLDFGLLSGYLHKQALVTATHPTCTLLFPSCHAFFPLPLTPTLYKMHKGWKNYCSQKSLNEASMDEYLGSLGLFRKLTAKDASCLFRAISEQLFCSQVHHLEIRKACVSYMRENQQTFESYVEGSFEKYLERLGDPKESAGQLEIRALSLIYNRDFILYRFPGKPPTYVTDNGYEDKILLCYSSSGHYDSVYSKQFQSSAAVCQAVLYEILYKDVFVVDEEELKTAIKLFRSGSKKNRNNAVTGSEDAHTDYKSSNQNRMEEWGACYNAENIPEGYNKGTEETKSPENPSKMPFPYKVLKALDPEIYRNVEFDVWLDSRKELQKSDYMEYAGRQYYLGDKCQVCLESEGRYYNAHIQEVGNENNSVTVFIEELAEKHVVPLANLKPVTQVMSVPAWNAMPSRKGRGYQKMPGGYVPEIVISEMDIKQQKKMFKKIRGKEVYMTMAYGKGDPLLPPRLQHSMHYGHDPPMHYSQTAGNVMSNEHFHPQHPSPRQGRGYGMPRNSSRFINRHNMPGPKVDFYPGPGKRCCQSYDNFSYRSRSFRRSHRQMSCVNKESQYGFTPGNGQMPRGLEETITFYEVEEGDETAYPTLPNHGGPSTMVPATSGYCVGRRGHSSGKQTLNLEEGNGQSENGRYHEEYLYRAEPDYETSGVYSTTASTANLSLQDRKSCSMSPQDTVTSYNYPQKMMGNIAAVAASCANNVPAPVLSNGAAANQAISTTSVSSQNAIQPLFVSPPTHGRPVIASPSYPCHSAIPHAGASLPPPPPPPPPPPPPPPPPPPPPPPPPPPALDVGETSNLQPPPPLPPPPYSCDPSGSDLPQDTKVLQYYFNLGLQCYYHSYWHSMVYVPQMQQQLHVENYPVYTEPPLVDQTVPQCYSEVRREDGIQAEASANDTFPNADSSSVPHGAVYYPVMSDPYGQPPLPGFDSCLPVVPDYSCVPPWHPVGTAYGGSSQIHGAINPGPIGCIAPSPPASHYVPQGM
Test Name: log2 ratio of Biotin-Ahx-Ub-VS probe labelling (fragment/DMSO); higher = less target engagement (more negative = stronger competition), active = hit call of the paper (q ≤ 0.05, log2 ratio ≤ -1)
Condition Notes: compound concentration: 200 uM; treatment time: 3 h
// return just the number, without any unit appended

Examples from the recorded data:
1) Cl.O=C(CCl)N1CCN(Cc2ccccc2)CC1 | 0.239
2) O=C(CCl)NC1CCS(=O)(=O)c2ccccc21 (stereo unspecified) | -0.299
3) CC(=O)C1CCCCN1C(=O)CCl (stereo unspecified) | 0.0431
4) O=C(CCl)N1CCOCCC1c1ccccc1 (stereo unspecified) | -0.00764

Next up:
[Q] // log2 ratio of Biotin-Ahx-Ub-VS probe labelling lookup, key: O=C(CCl)N1CCC(c2noc3cc(F)ccc23)CC1
[A] 0.141
